# Tgt: adrenergic α1 receptor
# Test Summary: adrenergic α1 receptor binding test ([3H] Prazosin Binding Test)
# Parameters: species or system SD rats
# Experimental Setup: 1 nM [3H] Prazosin, rat cortex, room temperature, 60 minutes
Measured Endpoint: Ki

>  <Compound>
CCN1CCN(c2cc(-c3ccccc3)c(OC)c(C(F)Cc3ccncc3)c2)CC1 (centres unmarked)

>  <Tgt>
adrenergic α1 receptor

>  <Ki>
308 nM

$$$$
>  <Compound>
CCN1CCN(c2cc(-c3ccccc3)c(OC)c(S(=O)(=O)N3CCCC3)c2)CC1

>  <Tgt>
adrenergic α1 receptor

>  <Ki>
> 1000 nM

$$$$
>  <Compound>
CCN1CCN(c2cc(-c3ccccc3)c(OC)c(C(O)c3ccccn3)c2)CC1 (centres unmarked)

>  <Tgt>
adrenergic α1 receptor

>  <Ki>
> 1000 nM

$$$$
>  <Compound>
CCCS(=O)(=O)c1cc(N2CCN(CC)CC2)cc(-c2ccccc2)c1Cl

>  <Tgt>
adrenergic α1 receptor

>  <Ki>
21.2 nM

$$$$
>  <Compound>
CCN1CCN(c2cc(C(Cc3ccc(F)cc3)=NO)c(OC)c(-c3ccccc3)c2)CC1

>  <Tgt>
adrenergic α1 receptor

>  <Ki>
> 1000 nM

$$$$
>  <Compound>
CCN1CCN(c2cc(-c3ccccc3)c(OC)c(S(=O)(=O)CCF)c2)CC1

>  <Tgt>
adrenergic α1 receptor

>  <Ki>
> 1000 nM

$$$$

Q: Sample COc1c(C(=O)Cc2ccccc2)cc(N2CCN(CCO)CC2)cc1-c1ccccc1 — what was its Ki?
Ans: > 1000 nM

Q: Sample CCc1cc(N2CCN(CC)CC2)cc(-c2ccccc2)c1OC — what was its Ki?
Ans: 322 nM

###

# Tgt: dopamine D2 receptor (Rattus norvegicus, UniProt P61169)
# Construct: the receptor fraction prepared from the corpus striatum was molten and suspended; from tissue; host or cells: corpus striatum of SD rats (membrane fraction)
# Sequence (P61169 whole entry): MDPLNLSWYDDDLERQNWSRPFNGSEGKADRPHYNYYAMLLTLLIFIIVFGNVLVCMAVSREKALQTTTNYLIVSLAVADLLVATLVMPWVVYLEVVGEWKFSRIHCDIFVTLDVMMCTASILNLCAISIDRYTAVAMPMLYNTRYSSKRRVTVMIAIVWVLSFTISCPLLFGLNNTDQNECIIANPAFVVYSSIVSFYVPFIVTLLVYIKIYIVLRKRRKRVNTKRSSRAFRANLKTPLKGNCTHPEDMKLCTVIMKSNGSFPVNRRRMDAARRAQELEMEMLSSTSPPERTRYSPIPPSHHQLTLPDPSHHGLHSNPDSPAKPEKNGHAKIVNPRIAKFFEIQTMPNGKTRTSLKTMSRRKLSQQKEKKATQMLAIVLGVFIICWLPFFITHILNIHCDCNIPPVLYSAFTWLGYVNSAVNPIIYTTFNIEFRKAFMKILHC
# Test Summary: dopamine D2 receptor binding test ([3H] Spiperone Binding Test)
# Design: species or system SD rats
# Experimental Setup: 1 nM [3H] Spiperone, rat corpus striatum, room temperature, 60 minutes; read-out: Ki value, dopamine D2 receptor
# reported Ki; entries follow
Field format: number, assumed nM, no unit text.

# annotated cases, reported Ki shown
>  <Molecule>
CCN1CCN(c2cc(CCCC#N)c(OC)c(-c3ccccc3)c2)CC1

>  <Result Units>
nM

>  <Ki>
14.7

$$$$
>  <Molecule>
CCN1CCN(c2cc(NS(=O)(=O)CCCCl)c(Cl)c(-c3ccccc3C)c2)CC1

>  <Result Units>
nM

>  <Ki>
0.74

$$$$
>  <Molecule>
CC[C@@H](F)c1cc(N2CCN(CC)CC2)cc(-c2ccc(F)cc2C)c1Cl

>  <Result Units>
nM

>  <Ki>
3.9

$$$$
>  <Molecule>
CCC(O)c1cc(N2CCN(CC)CC2)cc(-c2ccccc2)c1Cl (centres unmarked)

>  <Result Units>
nM

>  <Ki>
2.89

$$$$

Q: Sample CCN1CCN(c2cc(C(=O)CC3CC3)c(OC)c(-c3ccccc3)c2)CC1 — what was its Ki?
Ans: 162

###

# reported Ki; entries follow
# Tgt: adrenergic α1 receptor
# Test Summary: adrenergic α1 receptor binding test ([3H] Prazosin Binding Test)
# Design: species or system SD rats
# Experimental Setup: 1 nM [3H] Prazosin, rat cortex, room temperature, 60 minutes
Field format: number, assumed nM, no unit text.

# annotated cases, reported Ki shown
>  <Record Smiles>
CCCS(=O)(=O)Nc1cc(N2CCN(C)CC2)cc(-c2ccccc2C)c1Cl

>  <Measured Endpoint>
Ki

>  <Measured Value>
50.1

$$$$
>  <Record Smiles>
CCCc1cc(N2CCN(CC)CC2)cc(-c2ccc(OC)cc2)c1OC

>  <Measured Endpoint>
Ki

>  <Measured Value>
332

$$$$
>  <Record Smiles>
CCC(=O)c1cc(-c2ccccc2)cc(N2CCN(CC)CC2)c1

>  <Measured Endpoint>
Ki

>  <Measured Value>
70.4

$$$$

Now consider a different compound.
Q: Sample COc1c(-c2ccccc2)cc(N2CCN(CCO)CC2)cc1-c1ccccc1 — what was its Ki?
Ans: 459
